Test system: 648629-189-R-J1-PDC complex spheroids viability
Assay: Anticancer human tumor 648629-189-R-J1-PDC patient-derived bladder carcinoma cell line growth inhibition [CLK]
Settings: second compound 3.16 µM; first compound 0.1 µM; active compounds read low
property: viability, T/C (%)

| compound | val |
| --- | --- |
| COc1c(OCCCN2CCOCC2)ccc2c3n(c(=NC(=O)c4cnc(N)nc4)nc12)CCN3 + CNC(=O)c1ccc(Nc2nc(OC3CCCC3)c3c(-c4ccc5nc(C)oc5c4)c[nH]c3n2)c(OC)c1 | 11.2 |
| Nc1ccccc1NC(=O)c1ccc(CNC(=O)OCc2cccnc2)cc1 + CNC(=O)c1ccc(Nc2nc(OC3CCCC3)c3c(-c4ccc5nc(C)oc5c4)c[nH]c3n2)c(OC)c1 | 18.3 |
| O=c1[nH]cc(F)c(=O)[nH]1 + CN1CCN(c2cc(C(=O)Nc3cc4cc(-c5cnn(C)c5)ccc4cn3)ccn2)CC1 | 1.49 |
| C=CC(=O)N1CCN(c2nc(=O)n(-c3c(C)ccnc3C(C)C)c3nc(-c4c(O)cccc4F)c(F)cc23)C(C)C1 (stereo not given) + CNC(=O)c1ccc(Nc2nc(OC3CCCC3)c3c(-c4ccc5nc(C)oc5c4)c[nH]c3n2)c(OC)c1 | 22.7 |
| CC(CO)NC(=O)c1cc(-c2ccc(Cl)cc2)nn(-c2cnn(C)c2)c1=O (stereo not given) + CN1CCN(c2cc(C(=O)Nc3cc4cc(-c5cnn(C)c5)ccc4cn3)ccn2)CC1 | 0.17 |
| Nc1ccccc1NC(=O)c1ccc(CNC(=O)OCc2cccnc2)cc1 + CN1CCN(c2cc(C(=O)Nc3cc4cc(-c5cnn(C)c5)ccc4cn3)ccn2)CC1 | 1.97 |
| CC1COCCN1c1cc(C2(S(C)(=N)=O)CC2)nc(-c2ccnc3[nH]ccc23)n1 (stereo not given) + CN1CCN(c2cc(C(=O)Nc3cc4cc(-c5cnn(C)c5)ccc4cn3)ccn2)CC1 | 0.7 |
| C#Cc1c(F)ccc2cc(O)cc(-c3ncc4c(N5CC6CCC(C5)N6)nc(OCC56CCCN5CC(F)C6)nc4c3F)c12 (stereo not given) + CN1CCN(c2cc(C(=O)Nc3cc4cc(-c5cnn(C)c5)ccc4cn3)ccn2)CC1 | 0.2 |
| CC1(C)CCC(CN2CCN(c3ccc(C(=O)NS(=O)(=O)c4ccc(NCC5CCOCC5)c([N+](=O)[O-])c4)c(Oc4cnc5[nH]ccc5c4)c3)CC2)=C(c2ccc(Cl)cc2)C1 + CNC(=O)c1ccc(Nc2nc(OC3CCCC3)c3c(-c4ccc5nc(C)oc5c4)c[nH]c3n2)c(OC)c1 | 23.3 |
| Cn1ncnc1[C@H]1c2n[nH]c(=O)c3cc(F)cc(c23)N[C@@H]1c1ccc(F)cc1 + CN1CCN(c2cc(C(=O)Nc3cc4cc(-c5cnn(C)c5)ccc4cn3)ccn2)CC1 | 0.16 |
| CCCS(=O)(=O)Nc1ccc(F)c(C(=O)c2c[nH]c3ncc(-c4ccc(Cl)cc4)cc23)c1F + CN1CCN(c2cc(C(=O)Nc3cc4cc(-c5cnn(C)c5)ccc4cn3)ccn2)CC1 | 0.67 |
| CC(Nc1ccc2c(c1)OCCn1cc(N3C(=O)OCC3C(F)F)nc1-2)C(N)=O (stereo not given) + CNC(=O)c1ccc(Nc2nc(OC3CCCC3)c3c(-c4ccc5nc(C)oc5c4)c[nH]c3n2)c(OC)c1 | 20.3 |
| CCN1CCN(Cc2ccc(Nc3ncc(F)c(-c4cc(F)c5nc(C)n(C(C)C)c5c4)n3)nc2)CC1 + CNC(=O)c1ccc(Nc2nc(OC3CCCC3)c3c(-c4ccc5nc(C)oc5c4)c[nH]c3n2)c(OC)c1 | 17.8 |
| Nc1ccn(C2OC(CO)C(O)C2(F)F)c(=O)n1 (stereo not given) + CNC(=O)c1ccc(Nc2nc(OC3CCCC3)c3c(-c4ccc5nc(C)oc5c4)c[nH]c3n2)c(OC)c1 | 14.8 |
| CC1(C)CCC(CN2CCN(c3ccc(C(=O)NS(=O)(=O)c4ccc(NCC5CCOCC5)c([N+](=O)[O-])c4)c(Oc4cnc5[nH]ccc5c4)c3)CC2)=C(c2ccc(Cl)cc2)C1 + CN1CCN(c2cc(C(=O)Nc3cc4cc(-c5cnn(C)c5)ccc4cn3)ccn2)CC1 | 0.35 |
| COc1ccc([C@@H](O)c2cc(-c3ncnc4cc(N5CCOCC5)ccc34)c(F)cc2Cl)nn1 + CNC(=O)c1ccc(Nc2nc(OC3CCCC3)c3c(-c4ccc5nc(C)oc5c4)c[nH]c3n2)c(OC)c1 | 20.5 |
| C=C(F)C(=O)N1CCN(c2nc(OCC3CCCN3C)nc3c2CCN(c2cccc4cccc(Cl)c24)C3)CC1CC#N (stereo not given) + CNC(=O)c1ccc(Nc2nc(OC3CCCC3)c3c(-c4ccc5nc(C)oc5c4)c[nH]c3n2)c(OC)c1 | 19.3 |
| CC1COCCN1c1cc(C2(S(C)(=N)=O)CC2)nc(-c2ccnc3[nH]ccc23)n1 (stereo not given) + CNC(=O)c1ccc(Nc2nc(OC3CCCC3)c3c(-c4ccc5nc(C)oc5c4)c[nH]c3n2)c(OC)c1 | 21.8 |
| COc1cccc2c1C(=O)c1c(O)c3c(c(O)c1C2=O)CC(O)(C(=O)CO)CC3OC1CC(N)C(O)C(C)O1 (stereo not given) + CNC(=O)c1ccc(Nc2nc(OC3CCCC3)c3c(-c4ccc5nc(C)oc5c4)c[nH]c3n2)c(OC)c1 | 13.1 |
| COC1C=CCC(C)C(C)S(=O)(=O)NC(=O)c2ccc3c(c2)N(CC2CCC21)CC1(CCCc2cc(Cl)ccc21)CO3 (stereo not given) + CNC(=O)c1ccc(Nc2nc(OC3CCCC3)c3c(-c4ccc5nc(C)oc5c4)c[nH]c3n2)c(OC)c1 | 18.3 |

* * *

Tested on: 648629-189-R-J1-PDC complex spheroids viability
Assay: Anticancer human tumor 648629-189-R-J1-PDC cell line growth inhibition [CLK]; active = viability on the fitted dose curve at most 10% of control; inactive = the rest;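 note: drug exposure lasted seven days before viability readout; 100% = DMSO vehicle control wells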
Conditions: second compound 10 µM; first compound 0.0316 µM
Possible outcomes: TRUE (active), FALSE (inactive)

| compound | cat |
| --- | --- |
| COc1c(OCCCN2CCOCC2)ccc2c3n(c(=NC(=O)c4cnc(N)nc4)nc12)CCN3 + CNC(=O)c1ccc(Nc2nc(OC3CCCC3)c3c(-c4ccc5nc(C)oc5c4)c[nH]c3n2)c(OC)c1 | FALSE |
| CC1(C)CCC(CN2CCN(c3ccc(C(=O)NS(=O)(=O)c4ccc(NCC5CCOCC5)c([N+](=O)[O-])c4)c(Oc4cnc5[nH]ccc5c4)c3)CC2)=C(c2ccc(Cl)cc2)C1 + CN1CCN(c2cc(C(=O)Nc3cc4cc(-c5cnn(C)c5)ccc4cn3)ccn2)CC1 | TRUE |
| COC1C=CCC(C)C(C)S(=O)(=O)NC(=O)c2ccc3c(c2)N(CC2CCC21)CC1(CCCc2cc(Cl)ccc21)CO3 (stereo not given) + CN1CCN(c2cc(C(=O)Nc3cc4cc(-c5cnn(C)c5)ccc4cn3)ccn2)CC1 | TRUE |
| O=C(c1cc(Cc2n[nH]c(=O)c3ccccc23)ccc1F)N1CCN(C(=O)C2CC2)CC1 + CN1CCN(c2cc(C(=O)Nc3cc4cc(-c5cnn(C)c5)ccc4cn3)ccn2)CC1 | TRUE |
| COC1C=CCC(C)C(C)S(=O)(=O)NC(=O)c2ccc3c(c2)N(CC2CCC21)CC1(CCCc2cc(Cl)ccc21)CO3 (stereo not given) + CNC(=O)c1ccc(Nc2nc(OC3CCCC3)c3c(-c4ccc5nc(C)oc5c4)c[nH]c3n2)c(OC)c1 | FALSE |
| C=CC(=O)N1CCN(c2nc(=O)n(-c3c(C)ccnc3C(C)C)c3nc(-c4c(O)cccc4F)c(F)cc23)C(C)C1 (stereo not given) + CNC(=O)c1ccc(Nc2nc(OC3CCCC3)c3c(-c4ccc5nc(C)oc5c4)c[nH]c3n2)c(OC)c1 | FALSE |
| CC1(C)CCC(CN2CCN(c3ccc(C(=O)NS(=O)(=O)c4ccc(NCC5CCOCC5)c([N+](=O)[O-])c4)c(Oc4cnc5[nH]ccc5c4)c3)CC2)=C(c2ccc(Cl)cc2)C1 + CNC(=O)c1ccc(Nc2nc(OC3CCCC3)c3c(-c4ccc5nc(C)oc5c4)c[nH]c3n2)c(OC)c1 | FALSE |
| Nc1ccn(C2OC(CO)C(O)C2(F)F)c(=O)n1 (stereo not given) + CNC(=O)c1ccc(Nc2nc(OC3CCCC3)c3c(-c4ccc5nc(C)oc5c4)c[nH]c3n2)c(OC)c1 | FALSE |
| COc1c(OCCCN2CCOCC2)ccc2c3n(c(=NC(=O)c4cnc(N)nc4)nc12)CCN3 + CN1CCN(c2cc(C(=O)Nc3cc4cc(-c5cnn(C)c5)ccc4cn3)ccn2)CC1 | TRUE |
| CC(CO)NC(=O)c1cc(-c2ccc(Cl)cc2)nn(-c2cnn(C)c2)c1=O (stereo not given) + CN1CCN(c2cc(C(=O)Nc3cc4cc(-c5cnn(C)c5)ccc4cn3)ccn2)CC1 | TRUE |
| COc1cccc2c1C(=O)c1c(O)c3c(c(O)c1C2=O)CC(O)(C(=O)CO)CC3OC1CC(N)C(O)C(C)O1 (stereo not given) + CNC(=O)c1ccc(Nc2nc(OC3CCCC3)c3c(-c4ccc5nc(C)oc5c4)c[nH]c3n2)c(OC)c1 | FALSE |
| Cn1ncnc1[C@H]1c2n[nH]c(=O)c3cc(F)cc(c23)N[C@@H]1c1ccc(F)cc1 + CNC(=O)c1ccc(Nc2nc(OC3CCCC3)c3c(-c4ccc5nc(C)oc5c4)c[nH]c3n2)c(OC)c1 | FALSE |
| CC(CO)NC(=O)c1cc(-c2ccc(Cl)cc2)nn(-c2cnn(C)c2)c1=O (stereo not given) + CNC(=O)c1ccc(Nc2nc(OC3CCCC3)c3c(-c4ccc5nc(C)oc5c4)c[nH]c3n2)c(OC)c1 | FALSE |
| CC(Nc1ccc2c(c1)OCCn1cc(N3C(=O)OCC3C(F)F)nc1-2)C(N)=O (stereo not given) + CN1CCN(c2cc(C(=O)Nc3cc4cc(-c5cnn(C)c5)ccc4cn3)ccn2)CC1 | TRUE |
| C#Cc1c(F)ccc2cc(O)cc(-c3ncc4c(N5CC6CCC(C5)N6)nc(OCC56CCCN5CC(F)C6)nc4c3F)c12 (stereo not given) + CNC(=O)c1ccc(Nc2nc(OC3CCCC3)c3c(-c4ccc5nc(C)oc5c4)c[nH]c3n2)c(OC)c1 | FALSE |
| C=C(F)C(=O)N1CCN(c2nc(OCC3CCCN3C)nc3c2CCN(c2cccc4cccc(Cl)c24)C3)CC1CC#N (stereo not given) + CN1CCN(c2cc(C(=O)Nc3cc4cc(-c5cnn(C)c5)ccc4cn3)ccn2)CC1 | TRUE |
| CC1COCCN1c1cc(C2(S(C)(=N)=O)CC2)nc(-c2ccnc3[nH]ccc23)n1 (stereo not given) + CNC(=O)c1ccc(Nc2nc(OC3CCCC3)c3c(-c4ccc5nc(C)oc5c4)c[nH]c3n2)c(OC)c1 | FALSE |
| O=C(c1cc(Cc2n[nH]c(=O)c3ccccc23)ccc1F)N1CCN(C(=O)C2CC2)CC1 + CNC(=O)c1ccc(Nc2nc(OC3CCCC3)c3c(-c4ccc5nc(C)oc5c4)c[nH]c3n2)c(OC)c1 | FALSE |
| CCN1CCN(Cc2ccc(Nc3ncc(F)c(-c4cc(F)c5nc(C)n(C(C)C)c5c4)n3)nc2)CC1 + CN1CCN(c2cc(C(=O)Nc3cc4cc(-c5cnn(C)c5)ccc4cn3)ccn2)CC1 | TRUE |
| CCc1c2c(nc3ccc(O)cc13)-c1cc3c(c(=O)n1C2)COC(=O)[C@]3(O)CC + CNC(=O)c1ccc(Nc2nc(OC3CCCC3)c3c(-c4ccc5nc(C)oc5c4)c[nH]c3n2)c(OC)c1 | FALSE |

Value source: PubChem BioAssay AID2060602
